Listed below: folding enthalpy values for each entry.
# ASSAY DETAILS: folding enthalpy; higher = less favourable; fluorescence melt of hairpins on a sequencing array, two-state fit
# CONDITION SUMMARY: sodium 0.088 M
A number alone suffices; assume kcal/mol.

// known answers, use as guide
RESIDUES: GAGGGAGAAATCCCTC ((((((....))))))
MEASURE UNIT: kcal/mol
folding enthalpy: -36
--
RESIDUES: GATCGTCAGAACGATC ((((((....))))))
MEASURE UNIT: kcal/mol
folding enthalpy: -35.2

Moving on to another sequence below.
Lab note: measured folding enthalpy of GATGACGGAAACGTCGTC ((.((((....)))).)) was -43.3
